B1: Stu2-HA (wild-type Stu2, 3xHA tagged) [S. cerevisiae] / γ-tubulin (Tub4) [S. cerevisiae (endogenous in yeast extract)] (parent)
chain 1: MSGEEEVDYTTLPLEERLTYKLWKARLEAYKELNQLFRNSVGDISRDDNIQIYWRDPTLFAQYITDSNVVAQEQAIVALNSLIDAFASSSLKNAHNITLISTWTPLLVEKGLTSSRATTKTQSMSCILSLCGLDTSITQSVELVIPFFEKKLPKLIAAAANCVYELMAAFGLTNVNVQTFLPELLKHVPQLAGHGDRNVRSQTMNLIVEIYKVTGNNSDLLEEILFKKLKPIQVKDLHKLFAKVGDEPSSSKMLFEWEKRELEKKRSQEEEARKRKSILSNDEGEYQIDKDGDTLMGMETDMPPSKQQSGVQIDTFSMLPEETILDKLPKDFQERITSSKWKDRVEALEEFWDSVLSQTKKLKSTSQNYSNLLGIYGHIIQKDANIQAVALAAQSVELICDKLKTPGFSKDYVSLVFTPLLDRTKEKKPSVIEAIRKALLTICKYYDPLASSGRNEDMLKDILEHMKHKTPQIRMECTQLFNASMKEEKDGYSTLQRYLKDEVVPIVIQIVNDTQPAIRTIGFESFAILIKIFGMNTFVKTLEHLDNLKRKKIEETVKTLPNFSIASGSTHSTIETNKQTGPMENKFLLKKSSVLPSKRVASSPLRNDNKSKVNPIGSVASASKPSMVAANNKSRVLLTSKSLATPKNVVANSTDKNEKLIEEYKYRLQKLQNDEMIWTKERQSLLEKMNNTENYKIEMIKENEMLREQLKEAQSKLNEKNIQLRSKEIDVNKLSDRVLSLENELRNMEIELDRNKKRNDTNLQSMGTISSYSIPSSTVSSNYGVKSLSSALPFKEEEDVRRKEDVNYERRSSESIGDLPHRVNSLNIRPYRKNGTGVSSVSDDLDIDFNDSFASEESYKRAAAVTSTLKARIEKMKAKSRREGTTRT
chain 2: MGGEIITLQAGQCGNHVGKFLWSQLAKEHAIGTDGLSQLPDSSTERDDDTKPFFRENSRNKFTPRAIMMDSEPSVIADVENTFRGFFDPRNTWVASDGASAGNSWANGYDIGTRNQDDILNKIDKEIDSTDNFEGFQLLHSVAGGTGSGLGSNLLEALCDRYPKKILTTYSVFPARSSEVVVQSYNTILALRRLIEDSDATVVFDNASLLNISGKVFRNPNIDLQHTNQLISTIISSVTNSIRFPSYMYSSMSSIYSTLIPSPELHFLSPSFTPFTSDYIHDDIAHKGHSSYDVMLDLLDPSNSLVSTAMNNPTYFNVYNTIIGNVEPRQISRAMTKLQQRIKFPSWSSSAMHVNIGRRSPYLPLQPNENEVSGMMLSNMSTVVNVFENACNTFDKVFAKGAFLNNYNVGDLFQSMQNVQDEFAESREVVQSLMEDYVAAEQDSYLDDVLVDDENMVGELEEDLDADGDHKLV

variants of: B1; experiment: co-immunoprecipitation, western blot densitometry; conditions: with γ-tubulin (Tub4) [S. cerevisiae (endogenous in yeast extract)]; PBS buffer; three biological replicates; parent: 1; read off a plot
Listing: ratio to parent of selected variants

Before answering, review these 4 worked examples.
{"variant-annotation": "chain 1 K252Q", "ratio to parent": 7}
{"variant-annotation": "chain 1 K870Q", "ratio to parent": 0.9}
{"variant-annotation": "chain 1 K252R", "ratio to parent": 1.2}
{"variant-annotation": "chain 1 K469Q", "ratio to parent": 4}

Sure, the documented ratio to parent for chain 1 K469R is 2.2

Sure, the documented ratio to parent for chain 1 K252Q K469Q is 2.5

Sure, the documented ratio to parent for chain 1 K252Q K469Q K870Q is 5.5

Sure, the documented ratio to parent for chain 1 K252R K469R is 0.7

Sure, the documented ratio to parent for chain 1 K870R is 1.5
